Experimental protocol: Cyclic voltammetry in acetonitrile
Format: physicochemical
Assay setup: first reduction wave, acetonitrile, vs SCE, scan rate 0.100 V·s−1
Please mark TRUE if the recorded Epc (I) is equal to or greater than -0.7 V, and FALSE if it falls below.

Q) Has CCCCNC1=CC(=O)C(=O)c2ccccc21 [Compound 4e, 4-(butan-1-amine)-1,2-naphthoquinone] a recorded Epc (I) greater than or equal to -0.7 V?
A) FALSE

Q) Has CCN(CC)C1=CC(=O)C(=O)c2ccccc21 [Compound 4f, 4-(diethylamine)-1,2-naphthoquinone] a recorded Epc (I) greater than or equal to -0.7 V?
A) TRUE

Q) Has Nc1ccc(NC2=CC(=O)c3ccccc3C2=O)cc1 [Compound 3a] a recorded Epc (I) greater than or equal to -0.7 V?
A) FALSE

Q) Has Nc1ccc(NC2=CC(=O)C(=O)c3ccccc32)cc1 [Compound 4a] a recorded Epc (I) greater than or equal to -0.7 V?
A) TRUE

Q) Has N#Cc1ccc(NC2=CC(=O)C(=O)c3ccccc32)cc1 [Compound 4d] a recorded Epc (I) greater than or equal to -0.7 V?
A) TRUE

Q) Has O=C1C=C(Nc2ccccc2O)c2ccccc2C1=O [Compound 4h] a recorded Epc (I) greater than or equal to -0.7 V?
A) TRUE

Q) Has CCN(CC)C1=CC(=O)c2ccccc2C1=O [Compound 3f, 2-(diethylamine)-1,4-naphthoquinone] a recorded Epc (I) greater than or equal to -0.7 V?
A) FALSE

Q) Has O=C1C=C(Nc2ccc(O)cc2)c2ccccc2C1=O [Compound 4b] a recorded Epc (I) greater than or equal to -0.7 V?
A) TRUE

Q) Has COc1ccc(NC2=CC(=O)C(=O)c3ccccc32)cc1 [Compound 4c] a recorded Epc (I) greater than or equal to -0.7 V?
A) TRUE
